# assay_target: hPolεCD (DNA polymerase ε catalytic domain, exo-) (Homo sapiens, UniProt Q07864 27-1172, D275N;E277Q;del185-209)
# Sequence (Q07864 other isoform, or with tags, fused parts or gaps D275N;E277Q;del185-209): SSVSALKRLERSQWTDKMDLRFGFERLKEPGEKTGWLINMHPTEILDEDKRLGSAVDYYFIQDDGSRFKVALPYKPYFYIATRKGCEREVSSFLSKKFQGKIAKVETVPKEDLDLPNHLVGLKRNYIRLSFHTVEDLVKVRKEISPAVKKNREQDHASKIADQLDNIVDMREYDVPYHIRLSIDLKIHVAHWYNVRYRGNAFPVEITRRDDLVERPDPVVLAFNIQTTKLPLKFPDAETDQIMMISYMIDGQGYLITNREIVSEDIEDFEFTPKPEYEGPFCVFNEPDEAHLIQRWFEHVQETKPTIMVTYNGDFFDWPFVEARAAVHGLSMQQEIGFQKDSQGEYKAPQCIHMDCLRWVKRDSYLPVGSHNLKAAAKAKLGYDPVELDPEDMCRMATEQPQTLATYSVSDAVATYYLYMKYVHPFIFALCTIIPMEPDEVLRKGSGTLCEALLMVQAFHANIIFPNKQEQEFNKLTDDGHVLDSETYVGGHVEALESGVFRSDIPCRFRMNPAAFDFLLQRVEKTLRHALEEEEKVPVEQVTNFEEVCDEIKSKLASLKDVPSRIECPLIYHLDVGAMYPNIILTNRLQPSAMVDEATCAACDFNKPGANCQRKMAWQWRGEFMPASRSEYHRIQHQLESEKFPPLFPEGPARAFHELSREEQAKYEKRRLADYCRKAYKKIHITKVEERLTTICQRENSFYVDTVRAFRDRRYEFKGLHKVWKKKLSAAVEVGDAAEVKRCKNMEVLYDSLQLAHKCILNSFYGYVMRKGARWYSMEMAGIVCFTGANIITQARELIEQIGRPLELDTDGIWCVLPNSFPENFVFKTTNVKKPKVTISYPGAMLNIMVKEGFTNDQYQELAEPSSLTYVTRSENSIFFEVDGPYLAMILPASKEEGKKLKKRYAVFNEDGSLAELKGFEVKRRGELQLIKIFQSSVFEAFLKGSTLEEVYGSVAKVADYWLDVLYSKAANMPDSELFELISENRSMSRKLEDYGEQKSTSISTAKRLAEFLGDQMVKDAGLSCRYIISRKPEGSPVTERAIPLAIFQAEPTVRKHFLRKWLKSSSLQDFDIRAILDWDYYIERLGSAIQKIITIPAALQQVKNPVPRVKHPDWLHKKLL
# test: BLI; 100 mM NaCl, no dTTP/Mg2+; BLI (Octet K2): 30 mM Tris-Hepes pH 7.8, 100-150 mM NaCl, 2 mM TCEP, 0.002% Tween 20, 23 °C; EMSA: 20 mM Tris-Hepes pH 7.8, 100 mM NaCl, 2% glycerol, 2 mM TCEP, 0.2 mg/mL BSA, room temperature
# cond: protein: recombinant; tags: none in final protein (N-terminal His6-Sumo cleaved); label: 5' BiotinTEG on template; template 5' overhang 9 nt and 3' overhang 3 nt
Listed binders paired with reported Kd

- binder: "R4-D7 template:primer (mixed, primer nt 1-4 RNA, nt 5-11 DNA, 3' ddC) DNA: AATACATAAGCGCTCCAGGCAAT RNA: GCCUGGAGCGC"
  Kd / nM: 58.6
- binder: "R10-D1 template:primer (mixed, primer nt 1-10 RNA, nt 11 2',3'-dideoxy-C) DNA: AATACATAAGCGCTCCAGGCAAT RNA: GCCUGGAGCGC"
  Kd / nM: 73
- binder: "R6-D5 template:primer (mixed, primer nt 1-6 RNA, nt 7-11 DNA, 3' ddC) DNA: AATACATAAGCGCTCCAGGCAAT RNA: GCCUGGAGCGC"
  Kd / nM: 69.8

The reported measurements were obtained from paper PMC9205888.
